Reported Ki for target or system PIK3CG (human), by entry.

Before answering, review these 4 worked examples.
{"compound structure string": "COc1cc(-c2ccc3c(n2)[C@H](C)N(c2ccn(CC(F)(F)F)n2)C3=O)cnc1OC", "observed measurement": "< 100 nM"}
{"compound structure string": "CCn1ncc(N2Cc3nc(-c4cnc(OC)c(OC)c4)cc(C)c3C2=O)n1", "observed measurement": "< 100 nM"}
{"compound structure string": "COc1cc(-c2cc(C)c3c(n2)[C@](C)(O)N(c2cnn(CC(F)(F)F)c2)C3=O)cnc1OC", "observed measurement": "< 100 nM"}
{"compound structure string": "COc1cc(-c2ccc3c(n2)CN(c2ccc(N(C)CC4OCCO4)nc2)C3=O)cnc1OC", "observed measurement": "100 to 490 nM"}

// next entry
The reported Ki value, PIK3CG (human), for Cc1cc(-c2cnc(F)c(O)c2)nc2c1C(=O)N(c1cnn(CC(F)(F)F)c1)C2(C)C reads < 100 nM
